Source: the supplement of paper PMC10126150

Tested on: ATP;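 further: ATP exposure 15 min at 22 °C before imaging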
protocol-description: switch fluorescence ratio, 500 uM ATP over buffer (Cy3 cluster intensity, sum of 5 cycles each) (fold (ratio)); higher = stronger signal-on switching upon ATP binding; sequences stand for … in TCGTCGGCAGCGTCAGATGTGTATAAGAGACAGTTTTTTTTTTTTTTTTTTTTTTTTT…TC
experimental-context: aptamer strand: ATP DNA aptamer (quencher-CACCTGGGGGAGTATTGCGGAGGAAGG + anchor), 100 nM annealed; ATP concentration: 500 uM
measure: switch fluorescence ratio
Keep the answer to the number alone.

CGTGTTCGGA; 0.977
GAGAGCCACC; 0.971
TTGTTCCATA; 1

Please give the measured switch fluorescence ratio for this sequence: GGGTTAAGTC
0.983

Which switch fluorescence ratio reading was recorded for the sequence CGGGGAATCA ?
0.991

Can you share its switch fluorescence ratio? I mean this sequence: TAGGGTCACG
0.997

What measured switch fluorescence ratio goes with ATGCATTTTA ?
0.999

GET /values?readout=switch fluorescence ratio&item= AGGGGGCAAT
1.11

What does the record list as switch fluorescence ratio for GGGCTTGTAA ?
0.964

Item TTGATGGGAT has what recorded switch fluorescence ratio?
0.988

State the recorded switch fluorescence ratio for this entry: GTTCATTGTT
0.941

Which switch fluorescence ratio value is on record for AAACTATGGA ?
0.961

# lookup: switch fluorescence ratio of CTGGTGGGGG
0.97

// lookup switch fluorescence ratio for GGGGTCCTGA
1.01

For the sequence shown here, CCATTGTAGC , give the reported switch fluorescence ratio.
1.03

Bench note: what switch fluorescence ratio did GCAAGTGCAC show?
0.978

====

Tested on: ATP;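 further: ATP exposure 15 min at 22 °C before imaging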
protocol-description: switch fluorescence ratio, 500 uM ATP over buffer (Cy3 cluster intensity, sum of 5 cycles each) (fold (ratio)); higher = stronger signal-on switching upon ATP binding; sequences stand for … in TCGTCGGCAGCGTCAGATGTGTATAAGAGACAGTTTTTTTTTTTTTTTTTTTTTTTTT…TC
experimental-context: aptamer strand: ATP DNA aptamer (quencher-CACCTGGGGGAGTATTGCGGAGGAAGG + anchor), 100 nM annealed; ATP concentration: 500 uM
measure: switch fluorescence ratio
Output spec: single numeric token, no unit.

ACGGGGTCCG; 0.95
CGGGAATTTC; 1.04
CGGGCGGGGC; 1.04

Find the recorded switch fluorescence ratio belonging to CTAGAAGCGG and report it.
0.983

Recorded switch fluorescence ratio for GGATTTCAGG , please?
0.982

Requested read-out: switch fluorescence ratio. Entry: GGGTGATTGG
0.993

Could you share which switch fluorescence ratio value was measured for TGTGGAAAAA ?
1.01

Entry TTTTGGGCAT has what switch fluorescence ratio?
1.04

Given the sequence ATCGGTGGTG , what is its reported switch fluorescence ratio?
0.984

====

Tested on: ATP;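 further: ATP exposure 15 min at 22 °C before imaging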
protocol-description: switch fluorescence ratio, 500 uM ATP over buffer (Cy3 cluster intensity, sum of 5 cycles each) (fold (ratio)); higher = stronger signal-on switching upon ATP binding; sequences stand for … in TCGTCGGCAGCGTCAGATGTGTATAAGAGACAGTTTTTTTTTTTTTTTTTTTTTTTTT…TC
experimental-context: aptamer strand: ATP DNA aptamer (quencher-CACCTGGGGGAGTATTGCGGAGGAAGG + anchor), 100 nM annealed; ATP concentration: 500 uM
measure: switch fluorescence ratio
Could you keep your reply to the number by itself?

These recorded examples may help you get a feel for the data.
GGTGAAGTCA; 1
ACTCGTAACT; 0.993
GCTGATGACT; 0.992

What does the data say about its switch fluorescence ratio? Entry: ATATGTCAGA
0.996

switch fluorescence ratio lookup needed for TAAAGGATTC , thanks.
0.979

If you can, please state the reported switch fluorescence ratio value of GGTTAATCGT .
0.982

Sample GAAAAGATTA — what was its switch fluorescence ratio?
0.997

May I ask what switch fluorescence ratio has been recorded for AAGGGGCTTC ?
0.985

====

Tested on: ATP;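 further: ATP exposure 15 min at 22 °C before imaging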
protocol-description: switch fluorescence ratio, 500 uM ATP over buffer (Cy3 cluster intensity, sum of 5 cycles each) (fold (ratio)); higher = stronger signal-on switching upon ATP binding; sequences stand for … in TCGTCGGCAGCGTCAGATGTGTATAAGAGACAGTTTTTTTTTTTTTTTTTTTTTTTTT…TC
experimental-context: aptamer strand: ATP DNA aptamer (quencher-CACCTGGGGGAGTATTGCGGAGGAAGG + anchor), 100 nM annealed; ATP concentration: 500 uM
The entries below come with measured switch fluorescence ratio values attached.
Reply with the value as a number alone.

Reference set (3 entries):
TTAGCATTAG; 1.23
GGGAGAAAAT; 1.02
GTTGTATTTT; 0.989

Using the record for TAGAAAAGGC , report its switch fluorescence ratio.
1.15

Form field: reported switch fluorescence ratio of TTAAAAATAG
0.976

Which switch fluorescence ratio is reported for this sequence? CCCTTGATAC
2.24

Fill in the blank: the reported switch fluorescence ratio of TTAAGGTCGT is ____.
0.995

Item under review: AGCCTTTTTT . Reported switch fluorescence ratio?
0.982

Reported switch fluorescence ratio for CGGGGATGAA : what is it?
1.01

Endpoint output: switch fluorescence ratio of CCGACTAAAA . Value?
4.27

Bench note: what switch fluorescence ratio did AACCACGTTA show?
1.09

Name the recorded switch fluorescence ratio for AAACATATAT .
1.02

// returns reported switch fluorescence ratio for input TATGAATCCG
1

Recorded switch fluorescence ratio of GCGGCGAGGA , please.
1.02

Item AAGTCGCGTT has what recorded switch fluorescence ratio?
0.991

Param item = GAGCATGAAA ; retrieve measured switch fluorescence ratio.
0.974

====

Tested on: ATP;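 further: ATP exposure 15 min at 22 °C before imaging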
protocol-description: switch fluorescence ratio, 500 uM ATP over buffer (Cy3 cluster intensity, sum of 5 cycles each) (fold (ratio)); higher = stronger signal-on switching upon ATP binding; sequences stand for … in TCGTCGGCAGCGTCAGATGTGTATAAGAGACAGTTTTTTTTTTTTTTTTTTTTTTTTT…TC
experimental-context: aptamer strand: ATP DNA aptamer (quencher-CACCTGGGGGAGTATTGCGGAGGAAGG + anchor), 100 nM annealed; ATP concentration: 500 uM
Entries and their switch fluorescence ratio values follow.
Would you mind answering with just the numeric figure?

AAGGGTTTGT; 0.986

switch fluorescence ratio for CGGGGTGGTA ?
0.987

Name the reported switch fluorescence ratio value associated with the sequence TTAAAAGGGT
0.99

Field request: switch fluorescence ratio | item: GATGACAGAG
0.974

// query switch fluorescence ratio value for entry TCAAGTTTTG
0.972

# switch fluorescence ratio lookup, item GTTGGTTTTC
0.99

# get_value(readout='switch fluorescence ratio', item= GTTGTTATGG )
0.988

Given CGAGATGTTA , state its recorded switch fluorescence ratio.
0.993

So what does the record say about switch fluorescence ratio for AGATGCCGGA ?
1

Bench note: what switch fluorescence ratio did TTTATCTAGG show?
1.02

Which switch fluorescence ratio value belongs to AAGGAAAGAT ?
0.975

I have this sequence here, GCTGTTAATG , and I need its recorded switch fluorescence ratio.
0.984

Field request: switch fluorescence ratio | item: GGTGATACAG
1

Please report the recorded switch fluorescence ratio for TGCACAGTCG .
1.01

Fill blank: measured switch fluorescence ratio of the sequence TAAGTCGGAA is ____.
0.996

For the sequence shown here, CGGTTTGTTT , give the reported switch fluorescence ratio.
0.987

Which value of switch fluorescence ratio has been reported for CGAAGGGTGG in the records?
0.993

====

Test system: ATP;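 further: ATP exposure 15 min at 22 °C before imaging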
protocol-description: switch fluorescence ratio, 500 uM ATP over buffer (Cy3 cluster intensity, sum of 5 cycles each) (fold (ratio)); higher = stronger signal-on switching upon ATP binding; sequences stand for … in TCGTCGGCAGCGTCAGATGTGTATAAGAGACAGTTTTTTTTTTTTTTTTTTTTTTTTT…TC
experimental-context: aptamer strand: ATP DNA aptamer (quencher-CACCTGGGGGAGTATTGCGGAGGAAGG + anchor), 100 nM annealed; ATP concentration: 500 uM
Outcome: Y for switch fluorescence ratio of at least 1; N for anything lower.

Previously resolved entries follow.
CCTAATGCAG; Y
CCAGAGGGGT; Y
ATATCATCGG; N

Identify whether the reported switch fluorescence ratio of the following sequence is 1 or greater: TTATTCGCAA
Y

In plain terms: is recorded switch fluorescence ratio at least 1 for CCCAATTTTG ?
Y

Given the entry TTGGGAGGTT , answer whether its switch fluorescence ratio meets or surpasses 1.
N

Can GGAAGTCGGT be said to have switch fluorescence ratio at or above 1?
N

Decide: is the reported value of switch fluorescence ratio for ACGCTCGACC equal to or greater than 1?
Y

====

Test system: ATP;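 further: ATP exposure 15 min at 22 °C before imaging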
protocol-description: switch fluorescence ratio, 500 uM ATP over buffer (Cy3 cluster intensity, sum of 5 cycles each) (fold (ratio)); higher = stronger signal-on switching upon ATP binding; sequences stand for … in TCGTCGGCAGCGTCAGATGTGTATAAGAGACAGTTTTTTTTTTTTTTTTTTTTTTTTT…TC
experimental-context: aptamer strand: ATP DNA aptamer (quencher-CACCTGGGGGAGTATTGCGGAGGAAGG + anchor), 100 nM annealed; ATP concentration: 500 uM
Attribute: switch fluorescence ratio
A bare number is all that is needed in reply.

Look over these answered cases.
GATGGCATAA; 1.01
CTGCGGGTTA; 1.01
AAATCGAGGT; 0.992
AAAAACTAAT; 0.992
CGGTCGGGGA; 1

Item GCGCGTGCAC has what recorded switch fluorescence ratio?
0.988

What switch fluorescence ratio value was documented for this sequence, AATTGTTGCG ?
0.974

Which value of switch fluorescence ratio has been reported for AAGGTTAAGT in the records?
1.02

I would be grateful if you could share the reported switch fluorescence ratio for TTGAGTGGTC .
0.997

Entry under review: GGTGGTTATC . Reported switch fluorescence ratio?
1.01

For the sequence shown here, TACCATGAAT , give the reported switch fluorescence ratio.
1.01

Given TTAGGGTCGC , state its recorded switch fluorescence ratio.
0.993

Request the reported switch fluorescence ratio associated with TTCAGAAGGT
1.01

I'd like to know its switch fluorescence ratio. The sequence in question is TAGGTCATAT
1

I have this sequence here, GTAACTGGGA , and I need its recorded switch fluorescence ratio.
1.01

# input sequence: AAATTTACAT ; wanted: its switch fluorescence ratio
1

Endpoint output: switch fluorescence ratio of ACTTATGGGA . Value?
1.02

Fill blank: measured switch fluorescence ratio of the sequence ATTTAGGTCA is ____.
0.983

Value lookup for switch fluorescence ratio; key = TCAAGGGGCT
1

For GGACAGAGTT , what is its reported switch fluorescence ratio?
0.98

Dear colleague, I am looking for the recorded switch fluorescence ratio of the following sequence: AGGTTATTTT
0.992

Would you kindly share the measured switch fluorescence ratio for CATGGTTCGC ?
0.985

Any idea what its switch fluorescence ratio is? The sequence is GGATAAGGCC
1

Consider the sequence shown here: TATTAGTGAT What is its recorded switch fluorescence ratio?
0.987

Name the reported switch fluorescence ratio value associated with the sequence GATGGGCTAG
0.997

Using the record for GGTGTTGTGG , report its switch fluorescence ratio.
0.991

May I ask what switch fluorescence ratio has been recorded for GGTGGGAGGC ?
0.999
